Test: ATG_RORE_CIS: Attagene CIS-FACTORIAL HepG2 Assay for human RAR-related Orphan Receptor Element (RORE) (AID 2282959)
Conditions: HepG2 Attagene cis-factorial RORE reporter, mRNA; actives raise or lower the signal
Procedure: ATG_CIS is a cell-based, multiplexed-readout assay that uses HepG2, a human liver cell line, with measurements taken at 24 hours after chemical dosing in a 24-well plate.ATG_RORE_CIS is one of 52 assay component(s) measured or calculated from the ATG_CIS assay. […] This assay endpoint, ATG_RORE_CIS, was analyzed with bidirectional fitting relative to DMSO as the negative control and baseline of activity. […]
Activity calls are given as the source filed them. How the source made its calls: active means hit-call score of the fitted dose curve at least 0.9, where 1 is the maximum; inactive means score below 0.9.
# output must be one of active, inactive

Molecule: COP(=S)(OC)Oc1ccc(S(=O)(=O)N(C)C)cc1
Category Label: inactive

Molecule: Clc1nc(Cl)nc(Cl)n1
Category Label: inactive

Molecule: Nc1ncc([N+](=O)[O-])s1
Category Label: inactive

Molecule: CC12CC1(C)C(=O)N(c1cc(Cl)cc(Cl)c1)C2=O (configuration not stated)
Category Label: inactive

query: Called result for CC(=O)C(Cl)C(=O)N(C)C (configuration not stated)
result: inactive

query: # outcome recorded in this test, key = N#CN=C(N)N
result: inactive

query: Look up the recorded call for CCOP(OCC)OCC in this test.
result: inactive

query: In this assay, the call recorded for CC(=O)c1cc(C(C)(C)C)cc2c1CCC2(C)C was what?
result: inactive

query: What did this assay record as the result for CCC(=O)C(CC(C)N(C)C)(c1ccccc1)c1ccccc1 (configuration not stated) ?
result: inactive

====

Assay: ATG_M_06_TRANS: Attagene TRANS-FACTORIAL HepG2 Assay for M06 Transcription Factor (Internal Marker) (AID 2282983);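 on AC50: potency for rise in reporter mRNA above DMSO baseline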
Conditions: HepG2 Attagene TRANS M06 internal marker reporter
Results filed as inconclusive are left out. Calls of active or inactive are those of the source. How the source made its calls: active means hit-call score of the fitted dose curve at least 0.9, where 1 is the maximum; inconclusive means response in the unintended direction; inactive means score below 0.9.
Measured Quantity: AC50

Smiles Str: CCOC(=O)/C=C(C)/C=C/C[C@@H](C)CCCC(C)C
AC50: inactive
--
Smiles Str: COP(=O)(OC)O/C(=C\Cl)c1cc(Cl)c(Cl)cc1Cl
AC50: inactive
--
Smiles Str: C[C@]12CCC(=O)C[C@@H]1CC[C@@H]1[C@@H]2CC[C@]2(C)[C@@H](O)CC[C@@H]12
AC50: inactive
--
Smiles Str: [O-][Cl+2]([O-])O
AC50: inactive

Now look at this one.
query: Item O=C(O)C(F)(F)C(F)(F)C(F)(F)C(F)(F)C(F)(F)C(F)(F)C(F)(F)C(F)(F)C(F)(F)C(F)(F)F has what recorded AC50?
result: 129 µM (active)

====

Read-out: Heat shock 70 kDa protein 1 (HSPA1A), gene 3303
Assay: LTEA_HepaRG_HSPA1A: Life Technologies and Expression Analysis (LTEA) Assay for Heat shock 70 kDa protein 1 (HSPA1A) using HepaRG (AID 2283502)
Conditions: mRNA level, 48 h; actives raise or lower the signal
The source made the active and inactive calls. Rule for the calls: active = hit-call score of the fitted dose curve at least 0.9, where 1 is the maximum; inactive = score below 0.9.
Please state which outcome applies, choosing from True for active, False for inactive

Past entries and their recorded results:
Molecule: CCC(C)(C)c1ccc(O)c(C(C)(C)CC)c1
Category Label: False

Molecule: CCOP(=S)(OCC)SCSP(=S)(OCC)OCC
Category Label: False

Molecule: O=C(O)C(Cl)(Cl)Cl
Category Label: False

Molecule: O=C(O)C(F)(F)C(F)(F)C(F)(F)C(F)(F)C(F)(F)C(F)(F)F
Category Label: False

query: Hello, I am checking results. What call was entered for CCCCCCCCc1ccc(O)cc1 ?
result: False

query: // param item: O=C(Nc1ccc2[nH]ccc2c1)c1cc2cc(F)ccc2n1Cc1cccc(F)c1 ; yields the recorded call
result: True
